Parameter composite z-score: see the listing below.
TEST_TARGET: Dihydroorotate dehydrogenase (quinone), mitochondrial (Plasmodium falciparum (isolate 3D7)) (UniProt Q08210)
Sequence (Q08210 whole entry, looked up): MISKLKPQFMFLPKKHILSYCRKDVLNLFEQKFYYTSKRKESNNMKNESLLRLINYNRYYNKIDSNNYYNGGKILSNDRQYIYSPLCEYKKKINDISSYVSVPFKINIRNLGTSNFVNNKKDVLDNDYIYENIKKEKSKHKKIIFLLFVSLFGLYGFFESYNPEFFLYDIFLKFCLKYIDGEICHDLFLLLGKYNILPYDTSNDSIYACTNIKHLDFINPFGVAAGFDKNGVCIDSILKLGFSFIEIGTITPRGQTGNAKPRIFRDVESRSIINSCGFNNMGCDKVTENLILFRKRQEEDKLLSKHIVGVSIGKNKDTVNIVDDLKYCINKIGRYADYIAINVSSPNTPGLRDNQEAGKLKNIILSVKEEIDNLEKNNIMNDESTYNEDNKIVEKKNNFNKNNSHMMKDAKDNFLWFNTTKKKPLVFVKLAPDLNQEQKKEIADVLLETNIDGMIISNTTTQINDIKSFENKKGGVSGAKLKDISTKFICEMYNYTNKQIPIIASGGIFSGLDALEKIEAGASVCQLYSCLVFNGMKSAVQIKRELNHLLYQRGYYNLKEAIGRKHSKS
ASSAY_OVERVIEW: inhibition of P. falciparum DHODH – biochemical, C-terminal His tag, absorbance 600 nm, primary screen (AID 1175);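 note: recombinant parasite enzyme with a five histidine tag at its C terminus; test concentration not given here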
CONDITION_INFO: PfDHODH enzyme, DCIP absorbance 600 nm; higher = more signal, called active from +8 up or from −8 down
// keep it numeric: no unit symbol after the value

Consider the following illustrative entries.
N#Cc1ccc(NN2C(C(O)c3ccccc3)C=CC3C(=O)N(c4ccccc4)C(=O)C32)cc1 (centres undefined)	-0.804
CC(C)(C)OC(=O)CC[C@]1(C(=O)N2CCCCC2)N=C(c2ccc(OCCCO)cc2)O[C@H]1c1ccccc1CN=[N+]=[N-]	-0.625
CC(C)C(CO)N1C(=O)[C@@H]2[C@H]3C(=O)OCC=C[C@H]3OC23C=CCN(CCN2CCOCC2)C(=O)[C@@H]13 (some centres undefined)	0.395
C/C=C/[C@@H](CCn1cc([C@H](O)c2ccccc2)nn1)[Si](C)(C)c1ccc(OC)cc1	-0.222
COC(=O)[C@@]1(Cc2ccc(F)cc2)[C@@H]2[C@@H](CC(=O)[C@H]2CC(=O)C(=O)N2CCCC2)CN1C(=O)c1ccccc1	-0.238

Task: Reported composite z-score for CC(C)=CCCC(C)=CC(O)C1C=CC2C(=O)N(c3ccccc3)C(=O)C2N1Nc1ccc([N+](=O)[O-])cc1 (centres undefined) : what is it?
Output: -0.697

Task: Reported composite z-score for CCCCC(CC)C(O)C1C=CC2C(=O)NC(=O)C2N1Nc1ccccn1 (centres undefined) : what is it?
Output: 0.56

* * *

ASSAY_OVERVIEW: Pseudomonas biofilm growth suppression – PAO1 strain, BacTiter-Glo luminescence, LB-PBS, primary screen (AID 1144)
CONDITION_INFO: P. aeruginosa PAO1 biofilm, 12 h, higher = more signal
EXPERIMENTAL_READOUT: z-score
// keep it numeric: no unit symbol after the value

Task: Reported z-score for COc1cccc(C)c1NC(=O)O[C@H]1[C@H](OC(=O)Nc2ccccc2)[C@H](OC(=O)Nc2ccccc2)[C@@H](OC)O[C@@H]1CO : what is it?
Output: 0.365

Task: Reported z-score for CC(C)C[C@@H]1NC(=O)[C@@]23C(=O)N[C@@H](Cc4ccccc4)C2[C@H](C)[C@@]2(C)O[C@H]2C3/C=C/C/C=C\CNC(=O)[C@@H]2CCCN2C1=O (stereo not given in full) : what is it?
Output: 0.595

Task: Reported z-score for CCOC(=O)C[C@H]1[C@H](OC(=O)c2ccccc2-c2ccccc2)[C@@H](NC(=O)c2ccccc2)c2cc(OCCCO)ccc2N1C(=O)Cc1ccc(OC)cc1 : what is it?
Output: -0.228

* * *

Parameter z-score: see the listing below.
ASSAY_OVERVIEW: ATP-based viability of Huh7 replicon cells – cell-based, CellTiter-Glo luminescence, basal, 48 h, cytotoxicity control for HCV replication inhibitor project, primary screen (AID 1143);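 note: Huh7 hepatoma cells carrying a hepatitis C replication reporter with no stimulus; test concentration not given here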
CONDITION_INFO: higher = more signal, called active from +8 up or from −8 down
// keep it numeric: no unit symbol after the value

C[C@]12C(=O)N(CCCCCO)[C@@H]3C(=O)N(c4ccc(Cl)cc4)CC=CC31O[C@@H]1/C=C\CCCOC(=O)C12 (stereo partly drawn)	-0.297
COCCOC(=O)N1C(=O)[C@@]2(c3cc(C#CC4(O)CCCCCC4)ccc31)[C@H](C(=O)N1CCc3cc(OC)c(OC)cc3C1)[C@H]1C(=O)O[C@H](c3ccccc3)[C@H](c3ccccc3)N1[C@@H]2c1ccccc1OCCO	-2.18

Note: attention shifts to another entry.
Task: Reported z-score for O=C1C[C@@](C(=O)NCc2ccccc2)(c2ccc([N+](=O)[O-])cc2)[C@@H](c2ccc(CO)cc2I)N1C1CCCCC1 : what is it?
Output: -4.73

* * *

ASSAY_OVERVIEW: basal CRE-LacZ reporter activity in PC12 – cell-based, unstimulated, primary screen (AID 1145)
CONDITION_INFO: no forskolin, luminescence, 4.5 h, higher = more signal, called active from +8 up or from −8 down
Parameter z-score: see the listing below.
// keep it numeric: no unit symbol after the value

Task: Reported z-score for O=c1c2ccc(Br)cc2nc(-c2ccccc2)n1Cc1cccc(O)c1 : what is it?
Output: 0.272

* * *

Parameter composite z-score: see the listing below.
ASSAY_OVERVIEW: probe aNOTCH2 binding on compound microarray – biochemical, small-molecule microarray, 635/667 nm fluorescence, primary screen (AID 1121);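 note: score merges feature fluorescence read at 667 nm with its signal to noise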
CONDITION_INFO: higher = more signal
// keep it numeric: no unit symbol after the value

Consider the following illustrative entries.
COC(=O)C(CC#Cc1ccc2c(c1)[C@]1(C(=O)N2)[C@H](c2ccc(OCCO)cc2)N2[C@H](c3ccccc3)[C@H](c3ccccc3)OC(=O)[C@H]2[C@@H]1C(=O)O)C(=O)OC	0.224
C=CC[C@]1(C(=O)N(C)C)N=C(c2ccc(OCCCO)cc2)O[C@H]1c1ccccc1	-0.124

Task: Reported composite z-score for COc1cc(C(O)C2C=CC3C(=O)N(C)C(=O)C3N2NC(=O)OC(C)(C)C)cc(OC)c1OC (centres undefined) : what is it?
Output: 0.46

Task: Reported composite z-score for COc1ccc(CCNC(=O)[C@@H]2c3ccccc3C(=O)N(Cc3ccccc3C(F)(F)F)[C@H]2c2ccc(CO)cc2)cc1 : what is it?
Output: -0.0664

* * *

ASSAY_OVERVIEW: probe aShh binding to arrayed compounds – biochemical, biotinylated probe, 635/667 nm fluorescence, primary screen (AID 1114);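 note: probe is biotin-labelled aShh protein from a stem cell growth factor screen; measures binding of labelled protein to compounds printed on the slide; score merges feature fluorescence at 667 nm with signal-to-noise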
CONDITION_INFO: small-molecule microarray, higher = more signal
EXPERIMENTAL_READOUT: composite z-score

C[N+](C)(C)CCCC[C@@H]1NC(=O)[C@H]2C[C@@H](C(=O)NCCCCCCN)[C@@H](c3cccc(OCCO)c3)N2C1=O	0.705
C=CCOC(=O)[C@@H]1[C@H]2C(=O)O[C@H](c3ccccc3)[C@H](c3ccccc3)N2[C@H](c2ccc(OCCOC(=O)[C@@H]3C[C@@H]4C(=O)N5CCC[C@H]5C(=O)N4[C@@H]3c3cccc(OCCO)c3)cc2)[C@@]12C(=O)Nc1ccc(I)cc12	-0.264
O=C1c2ccccc2[C@](Cc2ccccc2I)(C(=O)NCC(F)(F)F)[C@H](c2ccc(CO)cc2)N1Cc1ccccc1	0.0048
COCCCNC(=O)[C@@]1(Cc2ccccc2N=[N+]=[N-])N=C(c2ccc(OCCCO)cc2)O[C@H]1c1ccccc1CN=[N+]=[N-]	0.551
CC(C)C[C@@H]1NC(=O)[C@@H]2C[C@H](C(=O)NCCCC[N+](C)(C)C)[C@H](c3cccc(OCCO)c3)N2C1=O	0.151

Task: Reported composite z-score for COC(=O)[C@@]1(Cc2ccc(F)cc2)[C@H]2c3cc(C(=O)N4CCCC4)n(Cc4ccccc4)c3C[C@H]2CN1C(=O)c1ccccc1 : what is it?
Output: -0.367

Task: Reported composite z-score for COc1ccc(CCNC(=O)[C@@H]2c3ccccc3C(=O)N(Cc3ccccc3)[C@H]2c2ccc(CO)cc2)cc1 : what is it?
Output: -0.0813

Task: Reported composite z-score for COCCOC(=O)N1C(=O)[C@@]2(c3cc(C#CCCO)ccc31)[C@H](C(=O)N1CCc3cc(OC)c(OC)cc3C1)[C@H]1C(=O)O[C@H](c3ccccc3)[C@H](c3ccccc3)N1[C@@H]2c1ccc(OCCO)cc1 : what is it?
Output: -0.304

Task: Reported composite z-score for CC(C)(C)N1CC=CC23O[C@@H]4C=CCCOC(=O)C4[C@H]2C(=O)N(CCCO)[C@@H]3C1=O (some centres undefined) : what is it?
Output: -0.0769

Task: Reported composite z-score for COCCOC(=O)N1C(=O)[C@@]2(c3cc(C#Cc4ccc(OC)cc4)ccc31)[C@H](C(=O)N1CCc3cc(OC)c(OC)cc3C1)[C@H]1C(=O)O[C@H](c3ccccc3)[C@H](c3ccccc3)N1[C@@H]2c1ccc(OCCO)cc1 : what is it?
Output: -0.138

Task: Reported composite z-score for COc1ccccc1CN1C(=O)c2ccccc2[C@](Cc2ccccc2I)(C(=O)NCCN2CCOCC2)[C@@H]1c1ccc(CO)cc1 : what is it?
Output: -0.144

* * *

Parameter composite z-score: see the listing below.
ASSAY_OVERVIEW: binders of probe aHhip on microarray, primary screen, stem cell growth factor project, biochemical, small-molecule microarray, fluorescence 635/667 (AID 1087);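 note: score merges spot fluorescence at 667nm with spot signal to noise ratio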
CONDITION_INFO: higher = more signal
// keep it numeric: no unit symbol after the value

COC(=O)C(CC#Cc1ccc2c(c1)[C@]1(C(=O)N2)[C@H](c2ccc(OCCO)cc2)N2[C@H](c3ccccc3)[C@H](c3ccccc3)OC(=O)[C@H]2[C@@H]1C(=O)O)C(=O)OC	0.398

Task: Reported composite z-score for COC(=O)C(CC#Cc1ccc2c(c1)[C@]1(C(=O)N2)[C@H](C(=O)N2CCc3cc(OC)c(OC)cc3C2)[C@H]2C(=O)O[C@H](c3ccccc3)[C@H](c3ccccc3)N2[C@@H]1c1ccc(O)cc1)C(=O)OC : what is it?
Output: 0.644

Task: Reported composite z-score for O=C1OCCC=C[C@H]2OC34C=CCN(Cn5nnc6ccccc65)C(=O)[C@H]3N(CCCCCO)C(=O)[C@@H]4C12 (some centres undefined) : what is it?
Output: -0.306

Task: Reported composite z-score for COC(=O)[C@@]1(Cc2ccccc2)[C@H]2c3cc(C(=O)N4CCCC4)n(Cc4ccc(OC(F)(F)F)cc4)c3C[C@H]2CN1C(=O)c1ccccc1 : what is it?
Output: 0.405

Reference for the values: PubChem BioAssay
